- test_target: LecA (Pseudomonas aeruginosa, UniProt Q05097)
- Sequence (Q05097 2-122): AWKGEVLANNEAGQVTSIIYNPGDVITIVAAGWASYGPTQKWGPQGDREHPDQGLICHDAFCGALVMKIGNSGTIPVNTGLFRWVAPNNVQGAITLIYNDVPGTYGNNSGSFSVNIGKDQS
- experiment_notes: competitive fluorescence polarization (displacement of βGal-aryl-Dansyl from […] LecA); also motility-enabled binding assay
readout_name: pIC50
Schema: pIC50 number; meaning minus log10 of the concentration expressed in molar units.

Can you look up pIC50 on LecA (Pseudomonas aeruginosa, UniProt Q05097) for CCCCCCCC(C)CC(C)CCO[C@@H]1O[C@H](CO)[C@@H](O[C@H]2O[C@H](CO)[C@@H](O)[C@H](O)[C@H]2O)[C@H](O)[C@H]1O (stereo partly shown) ?
4.82

====

- test_target: LecA (Pseudomonas aeruginosa, UniProt Q05097)
- experiment_notes: direct fluorescence polarization titration with LecA ([…])
pKd: −log10 of the molar value.
readout_name: pKd

Item CN(C)c1cccc2c(S(=O)(=O)Nc3ccc(O[C@@H]4O[C@H](CO)[C@H](O)[C@H](O)[C@H]4O)cc3)cccc12 [βGal-aryl-Dansyl] has what recorded pKd?
~4.97

====

- test_target: LecA (Pseudomonas aeruginosa)
- experiment_notes: competitive fluorescence polarization (displacement of βGal-aryl-Dansyl from […] LecA)
- Type: binding
readout_name: pIC50
The scale used: pIC50 is minus the common logarithm of the concentration in molar units.

What pIC50 value was documented for this molecule, CCCCCCCC(C)CC(C)CCO[C@@H]1O[C@H](CO)[C@@H](O[C@@H]2O[C@H](CO)[C@@H](O)[C@H](O)[C@H]2O)[C@H](O)[C@H]1O (stereo partly shown) [1b, 3,5-diMeDβC] ?
4.89
